Values from paper PMC11661448

B1: TTC7B-FAM126A (1 to 308) mutant FAM126A:A103R [human] / EFR3A (721 to 791) [human] (parent)
chain 1: MATKKAGSRLETEIERCRSECQWERIPELVKQLSAKLIANDDMAELLLGESKLEQYLKEHPLRQGASPRGPKPQLTEVRKHLTAALDRGNLKSEFLQESNLIMAKLNYVEGDYKEALNIYARVGLDDLPLTAVPPYRLRVIAEAYATKGLCLEKLPISSSTSNLHVDREQDVITCYEKAGDIALLYLQEIERVILSNIQNRSPKPGPAPHDQELGFFLETGLQRAHVLYFKNGNLTRGVGRFRELLRAVETRTTQNLRMTIARQLAEILLRGMCEQSYWNPLEDPPCQSPLDDPLRKGANTKTYTLTRRARVYSGENIFCPQENTEEALLLLLISESMANRDAVLSRIPEHKSDRLISLQSASVVYDLLTIALGRRGQYEMLSECLERAMKFAFEEFHLWYQFALSLMAAGKSARAVKVLKECIRLKPDDATIPLLAAKLCMGSLHWLEEAEKFAKTVVDVGEKTSEFKAKGYLALGLTYSLQATDASLRGMQEVLQRKALLAFQRAHSLSPTDHQAAFYLALQLAISRQIPEALGYVRQALQLQGDDANSLHLLALLLSAQKHYHDALNIIDMALSEYPENFILLFSKVKLQSLCRGPDEALLTCKHMLQIWKSCYNLTNPSDSGRGSSLLDRTIADRRQLNTITLPDFSDPETGSVHATSVAASRVEQALSEVASSLQSSAPKQGPLHPWMTLAQIWLHAAEVYIGIGKPAEATACTQEAANLFPMSHNVLYMRGQIAELRGSMDEARRWYEEALAISPTHVKSMQRLALILHQLGRYSLAEKILRDAVQVNSTAHEVWNGLGEVLQAQGNDAAATECFLTALELEASSPAVPFTIIPRVL
chain 2: MFTSEKGVVEEWLSEFKTLPETSLPNYATNLKDKSSLVSSLYKVIQEPQSELLEPVCHQLFEFYRSGEEQLLQFTLQFLPELIWCYLAVSASRNVHSSGCIEALLLGVYNLEIVDKQGHTKVLSFTIPSLSKPSVYHEPSSIGSMALTESALSQHGLSKVVYSGPHPQREMLTAQNRFEVLTFLLLCYNAALTYMPSVSLQSLCQICSRICVCGYPRQHVRKYKGISSRIPVSSGFMVQMLTGIYFAFYNGEWDLAQKALDDIIYRAQLELYPEPLLVANAIKASLPHGPMKSNKEGTRCIQVEITPT
chain 3: SNTEEITFEALKKAIDTSGMEEQEKEKRRLVIEKFQKAPFEEIAAQCESKANLLHDRLAQILELTIRPPPS

variants of: B1; assay: BLI; conditions: with EFR3A (721 to 791) [human]; His-EFR3A loaded on the anti-penta-His tip at 200 nM, TTC7B-FAM126A at 500 nM; 25°C; 20 mM HEPES (pH 7.5), 150 mM NaCl; read off a plot
// reported response per item
Give a bare numeral; the unit nm is implied.

chain 2 A103R | 0.08
chain 2 F61A | 0.37

# ---- query variant ----
Task: Field request: response | item: chain 1 A702R
Result: -0.07
